SYSTEM: PaFimX (Pseudomonas aeruginosa, UniProt Q9HUK6)
ASSAY TEXT: isothermal titration calorimetry
METRIC: pKd
# log scale: pKd equals minus log10 of the concentration in mol/L

# compound Nc1nc2c(ncn2[C@@H]2O[C@@H]3CO[P@](=O)(O)O[C@H]4[C@@H](O)[C@H](n5cnc6c(=O)[nH]c(N)nc65)O[C@@H]4CO[P@](=O)(O)O[C@H]3[C@H]2O)c(=O)[nH]1 [cdG] ; its pKd = 6.84
